Target: SRY HMG box WT (Homo sapiens, UniProt Q05066 56-141)
Sequence (Q05066 56-141): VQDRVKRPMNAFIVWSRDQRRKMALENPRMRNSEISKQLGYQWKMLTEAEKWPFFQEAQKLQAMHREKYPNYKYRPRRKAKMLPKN
Test: FRET titration; 15 C, 25 nM DNA; FRET titration: 10 mM potassium phosphate, 10 mM Tris-HCl, 140 mM KCl, 1 mM EDTA, 1 mM DTT, pH 8.4, 15 C, 25 nM DNA; PGE: 10 nM DNA, 20 nM protein, 0.5x TBE, 4
Settings: protein: recombinant; label: 5'-6-FAM (hexanyl linker) on upper strand; 5'-TAMRA (hexanyl linker) on lower strand; blunt
pKd: −log10 of the molar value.
quantity_name: pKd

15-bp consensus SRY site, FRET-labeled (dsDNA) DNA 1: TCGGTGATTGTTCAG DNA 2: CTGAACAATCACCGA
8.00
